Hello, the source for this data is the supplement of paper PMC9170038, in case you need it.

Test system: MS2 coat protein
Experiment: apparent KD of MS2 coat protein; designed switch direction (-1 OFF switch, 1 ON switch): -1; higher = weaker reporter binding
Conditions: Eterna round: R95; input ligand: FMN 200 uM
Classes (apparent KD of MS2 coat protein): low bracket = under 50 nM, middle bracket = from 50 nM up to 300 nM, high bracket = 300 nM and over

- monomer sequence: "UGGCUGCUCAGGGAGUGUGACAUGAGGAUCACCCAUGUGGUAGUAAGGAACAAGCUUUUUGCACGUACUUAUGGGUC [JR_SV3TOV1_Sub010] (puzzle: Sensor v3, turn-off variant 1)"
  group: "middle bracket"
- monomer sequence: "AGUAGAUCUACGCUUGCGUGGAUCUGCUAGGCAGGUGUAACAUGAGGAUCACCCAUGUCCUCAUUUGUUCGUCUUAU [JL turnoff v2 99.18] (puzzle: Sensor v3, turn-off variant 2)"
  group: "middle bracket"
- monomer sequence: "AGAUGGCGAGGAUAUACAUGAGGAUCACCCAUGUGAGAUAAAAGAGUGAGGAAGAAAAGUAGAAGGCGCUGUCA [Mat - Exclusion 3 - Mod of Salish D16] (puzzle: Exclusion 3)"
  group: "middle bracket"
- monomer sequence: "UUUAAUUUUUUUUUUUUACAAGCUUUUUGCUCGUCUUAUACAUGAGGAUCACCCAUGUAAGUGGGAAAUGAAUUAUC [JMF 99] (puzzle: Sensor v3, turn-off variant 2)"
  group: "middle bracket"
- monomer sequence: "UCCAAGACAGGAUAUCUAGAGCCAAACAUGAGGAUCACCCAUGUGAAUCUCAGCAAACGCAGAGAAGGGUCAAAAU [Orisinxe] (puzzle: Exclusion 5)"
  group: "low bracket"
- monomer sequence: "GGUACUAACACGAAAGUGUUAGUACUAUAAGUUUGUGUUACAUGAGGAUCACCCAUGUCCUCAUAAGCUCGUCUUGU [JL-sv3-2.20 mat747 mod] (puzzle: Sensor v3, turn-off variant 2)"
  group: "high bracket"
- monomer sequence: "UAGUAGCAAGGAUAUACAGAGGAGAGGAUUGCAAGAGGUGGACAUGAGGAUCACCCAUGUAGAAGGUGCAGAGA [JR_Exclu2_Sub021] (puzzle: Exclusion 2)"
  group: "high bracket"
- monomer sequence: "UAGAAGGUAGGAUAUACGAAUAAAUAGGGUAGUAAUAAUACACAUGAGGAUCACCCAUGUAGAAGGACCAAGAU [Mat - Exclusion 2 - Mod of my Tesla design - D31] (puzzle: Exclusion 2)"
  group: "low bracket"
- monomer sequence: "UAAUGCAAGUAAAGAUCUUACAUGAGGAUCACCCAUGUGCUCGUCUUAUAAAGUACUAUCACGAAAGUGAUAGUACA [Mat - Sensor v3 - turn-off var 1 - Eli Mod - D89] (puzzle: Sensor v3, turn-off variant 1)"
  group: "low bracket"
